- Tested on: BV-173
- EXPERIMENTAL_DETAILS: cell viability (% survival relative to DMSO control, bortezomib = 0%); higher = less cytotoxic
- EXPERIMENTAL_CONDITIONS: 1 nM; 72 h
READOUT_KIND: cell viability (%)
I only need the number, in %, no unit after it.

Solved cases below.
CC[C@H](C)[C@H](N)C(=O)N1CCSC1 [P32/98]    96.2
Cc1nc(-c2ccccc2)sc1C(=O)Nc1ccc(S(N)(=O)=O)cc1    115

# cell viability of Cc1cc(C(=O)NNCc2ccccc2)no1 [Isocarboxazid] = 99.1

# cell viability of N#Cc1ccc(N(Cc2ccc(Br)cc2)n2cnnc2)cc1 [YM511] = 92

# cell viability of CC(C)(C)c1ccc(S(=O)(=O)NCc2ccc(C(=O)Nc3cccnc3)cc2)cc1 [STF-31] = 96.3

# cell viability of Cc1[nH]nc(C(F)(F)F)c1Cc1sc2c(c1C(=O)N1C[C@](C)(O)CO1)c(=O)n(C)c(=O)n2C(C)C [AZD3965] = 91.4

# cell viability of O=C([O-])CC(O)(C(=O)[O-])C(O)C(=O)[O-].[K+].[K+].[K+] (configuration not stated) [Hydroxycitrate] = 80.2

====

- Tested on: KU-812
- EXPERIMENTAL_DETAILS: cell viability (% survival relative to DMSO control, bortezomib = 0%); higher = less cytotoxic
- EXPERIMENTAL_CONDITIONS: 100 nM; 72 h
Form field: cell viability (one value per entry).
I only need the number, in %, no unit after it.

Solved cases below.
C=CCN(C)CCCCCCOc1ccc(C(=O)c2ccc(Br)cc2)c(F)c1.O=C(O)/C=C/C(=O)O [Ro 48-8071 fumarate]    76.2
CC(C)CC(=O)N[C@H](C(=O)N[C@H](C(=O)N[C@@H](CC(C)C)[C@@H](O)CC(=O)N[C@@H](C)C(=O)N[C@@H](CC(C)C)[C@@H](O)CC(=O)O)C(C)C)C(C)C    96.8
CCN(CC)C(=S)SSC(=S)N(CC)CC    97
C=CC(=O)c1ccc(O)cc1    96.4
O=C(O)CC[N+](=O)[O-]    99.8
CN(Cc1cnc2nc(N)nc(N)c2n1)c1ccc(C(=O)N[C@@H](CCC(=O)O)C(=O)O)cc1 [Methotrexate]    38.9
CCCCCCCC/C=C\CCCCCCCC(=O)Nc1ccccc1 [Octadec-9-Enoic Acid Phenylamide]    95.6

# cell viability of `N[C@@H](CC(=O)N1CCn2c(nnc2C(F)(F)F)C1)Cc1cc(F)c(F)cc1F` = 91.9

====

- Test system: myeloid leukemia patient primary cells Pat.11
- EXPERIMENTAL_DETAILS: cell viability (% survival relative to DMSO control); higher = less cytotoxic
- EXPERIMENTAL_CONDITIONS: 10000 nM; 72 h
Form field: cell viability (one value per entry).
I only need the number, in %, no unit after it.

Solved cases below.
O=C(O)CC[N+](=O)[O-] [3-nitropropionic acid]    97.4
CO[C@H]1C[C@@H]2CC[C@@H](C)[C@@](O)(O2)C(=O)C(=O)N2CCCC[C@H]2C(=O)O[C@H]([C@H](C)C[C@@H]2CC[C@@H](OCCO)[C@H](OC)C2)CC(=O)[C@H](C)/C=C(\C)[C@@H](O)[C@@H](OC)C(=O)[C@H](C)C[C@H](C)/C=C/C=C/C=C/1C [Everolimus]    70.2
Cc1[nH]nc(C(F)(F)F)c1Cc1sc2c(c1C(=O)N1C[C@](C)(O)CO1)c(=O)n(C)c(=O)n2C(C)C [AZD3965]    88.6

The measured cell viability that `Cn1cc(-c2ccncc2)c(-c2ccc(OCc3ccc4ccccc4n3)cc2)n1` showed for myeloid leukemia patient primary cells Pat.11 is 99.3

The measured cell viability that O=C(/C=C/c1ccc(O)c(O)c1)OCCc1ccccc1 [Caffeic acid phenethyl ester] showed for myeloid leukemia patient primary cells Pat.11 is 38

The measured cell viability that c1cc(-c2cnn3cc(-c4ccc(OCCN5CCCCC5)cc4)cnc23)ccn1 [Dorsomorphin] showed for myeloid leukemia patient primary cells Pat.11 is 43.8

The measured cell viability that CN(Cc1cnc2nc(N)nc(N)c2n1)c1ccc(C(=O)N[C@@H](CCC(=O)O)C(=O)O)cc1 [Methotrexate] showed for myeloid leukemia patient primary cells Pat.11 is 95.5

The measured cell viability that CCN(CC)C(=S)SSC(=S)N(CC)CC [Disulfiram] showed for myeloid leukemia patient primary cells Pat.11 is 3.25

====

- System: HL-60
- EXPERIMENTAL_DETAILS: cell viability (% survival relative to DMSO control); higher = less cytotoxic
- EXPERIMENTAL_CONDITIONS: drug1 concentration 1000 nM; drug2 concentration 100 nM; 72 h
Structures can show the parent of a compound that is named as a salt.
READOUT_KIND: cell viability

Solved cases below.
O=C(O)CC[N+](=O)[O-] [3-nitropropionic acid] + CCn1c(=Cc2cccc[n+]2CC)sc(=C2Sc3ccccc3N2C)c1=O    50.3%
CN(CCOc1ccc(Cc2sc(O)nc2O)cc1)c1ccccn1 [Rosiglitazone] + c1cc(-c2cnn3cc(-c4ccc(OCCN5CCCCC5)cc4)cnc23)ccn1 [Dorsomorphin]    > 100%
CN(CCOc1ccc(Cc2sc(O)nc2O)cc1)c1ccccn1 [Rosiglitazone] + CC(C)(Cc1ccccc1)NCC(O)c1ccc(O)c(NS(C)(=O)=O)c1 [Zinterol hydrochloride]    > 100%

# cell viability of CCn1c(=Cc2cccc[n+]2CC)sc(=C2Sc3ccccc3N2C)c1=O [MKT 077] + CN(C)CCNC(=O)c1cccn2c(=O)c3cc4ccccc4cc3nc12 = > 100%

====

Form field: cell viability (one value per entry).
- System: LAMA-84
- EXPERIMENTAL_DETAILS: cell viability (% survival relative to DMSO control, bortezomib = 0%); higher = less cytotoxic
- EXPERIMENTAL_CONDITIONS: 10000 nM; 72 h
I only need the number, in %, no unit after it.

Solved cases below.
Cc1[nH]nc(C(F)(F)F)c1Cc1sc2c(c1C(=O)N1C[C@](C)(O)CO1)c(=O)n(C)c(=O)n2C(C)C    102
O=C(Nc1ccccc1)c1cc([N+](=O)[O-])ccc1Cl    90.5
O=c1c(-c2ccc(O)cc2)coc2cc(O[C@@H]3O[C@H](CO)[C@@H](O)[C@H](O)[C@H]3O)ccc12    97.9
C=CCN(C)CCCCCCOc1ccc(C(=O)c2ccc(Br)cc2)c(F)c1.O=C(O)/C=C/C(=O)O [Ro 48-8071 fumarate]    47
Cc1cc(C(=O)NNCc2ccccc2)no1    95.8
CC/C=C\C[C@H]1C(=O)CC[C@@H]1CC(=O)OC [Methyl jasmonate]    110
CN(CCOc1ccc(Cc2sc(O)nc2O)cc1)c1ccccn1    97.4
C=CC(=O)c1ccc(O)cc1    56.7
CC[C@H](C)[C@H](N)C(=O)N1CCSC1    103
N#Cc1ccc(N(Cc2ccc(Br)cc2)n2cnnc2)cc1    103

Here is another compound to look at.
# cell viability of `Cc1ccc(-c2cc(C(F)(F)F)nn2-c2ccc(S(N)(=O)=O)cc2)cc1` = 79.6

====

- Test system: myeloid leukemia patient primary cells Pat.10
- EXPERIMENTAL_DETAILS: cell viability (% survival relative to DMSO control); higher = less cytotoxic
- EXPERIMENTAL_CONDITIONS: 1000 nM; 72 h
READOUT_KIND: cell viability

# cell viability of Cc1cc2c(C(C)C)c(O)c(O)c(C=O)c2c(O)c1-c1c(C)cc2c(C(C)C)c(O)c(O)c(C=O)c2c1O [Gossypol] = 2.16%

====

Form field: cell viability (one value per entry).
- Test system: myeloid leukemia patient primary cells Pat.7
- EXPERIMENTAL_DETAILS: cell viability (% survival relative to DMSO control); higher = less cytotoxic
- EXPERIMENTAL_CONDITIONS: 10000 nM; 72 h

The measured cell viability that C=CCN(C)CCCCCCOc1ccc(C(=O)c2ccc(Br)cc2)c(F)c1.O=C(O)/C=C/C(=O)O [Ro 48-8071 fumarate] showed for myeloid leukemia patient primary cells Pat.7 is < 0%

The measured cell viability that `O=C(O)CC[N+](=O)[O-]` showed for myeloid leukemia patient primary cells Pat.7 is 44.9%

The measured cell viability that `Cn1cc(-c2ccncc2)c(-c2ccc(OCc3ccc4ccccc4n3)cc2)n1` showed for myeloid leukemia patient primary cells Pat.7 is 32.4%

The measured cell viability that `CC(C)(C)c1ccc(S(=O)(=O)NCc2ccc(C(=O)Nc3cccnc3)cc2)cc1` showed for myeloid leukemia patient primary cells Pat.7 is < 0%

The measured cell viability that `Cc1cc2c(C(C)C)c(O)c(O)c(C=O)c2c(O)c1-c1c(C)cc2c(C(C)C)c(O)c(O)c(C=O)c2c1O` showed for myeloid leukemia patient primary cells Pat.7 is < 0%
